Exercise: state measured %Inh for each of the compounds provided.
system: TNNI3K; details: concentration: 1 μM, replicates: in singlicate; n = 1;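 note: KINOMEscan kinase panel screen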
Answers are plain numbers, in %.

Give measured %Inh for every item shown.
1. COc1ccc(Nc2nccc(NCCNC(=O)Nc3cc(C)ccc3C)n2)cc1 [GSK1379899]
2. FC(F)(F)c1ccccc1-c1cc(-c2c[nH]nc2-c2ccccn2)ccn1 [GW679396]
3. COc1cc2ncnc(Nc3cccc(Br)c3)c2cc1OC.Cl [GI230329]
4. CCn1c(-c2ccccc2)nc2cnccc21 [SB-733416]
5. COc1ccc(Nc2nccc(N3CCC(NC(=O)C(C)c4ccc(Cl)cc4)CC3)n2)cc1 (stereo not drawn) [GSK1379812]

1. 0
2. 0
3. 15
4. 16
5. 2

Record %Inh for all entries; do not skip any.
1. O=c1cc(N2CCOCC2)nc2n(Cc3cccc(Cl)c3Cl)c3ccccc3n12 [GSK2299009]
2. COc1ccc(CSc2nnc(-c3ccc4nccn4c3)o2)cc1C(F)(F)F
3. CC(C)c1ccc(O)cc1Nc1ccnc2ccc(C(F)(F)F)cc12 [GW482059]

1: 17; 2: 0; 3: 71

Specify %Inh for Nc1cccc(-c2ccc3c(N)n[nH]c3c2)n1 [GSK2192730] , system TNNI3K.
0

* * *

system: CASK; details: concentration: 1 μM, replicates: in singlicate; n = 1
measurement_kind: %Inh (%)
One number for each entry, in %.

> print(dat)
                                   molecule  result.value
1  O=c1cc(N2CCOCC2)nc2n(Cc3ccccc3F)ccn12 [GSK2297428]            79

Below are 3 molecules. Give each one its %Inh.
1. FC(F)(F)c1ccccc1-c1cc(-c2c[nH]nc2-c2ccccn2)ccn1 [GW679396]
2. COc1ccc(CSc2nnc(-c3ccc4ncsc4c3)o2)cc1C(F)(F)F
3. Cc1ccc(NC(=O)Nc2ccccc2)cc1-c1ccc(C(=O)Nc2ccncc2)cc1 [GSK1398471]

[17, 10, 0]

// for each molecule below, give its %Inh
1. CS(=O)(=O)Cc1ccc(Nc2nccc(-c3c(-c4cccc(NC(=O)C5CCCCC5)c4)nn4ncccc34)n2)cc1 [GSK350559]
2. CC[C@@H]1CO[C@H](C(=O)Nc2ccccc2)CN1c1cc(-c2ccc3c(N)n[nH]c3c2)nc(NC)n1 [GSK2376236]
3. CC(=O)c1c(C)c2cnc(Nc3ccc(N4CCNCC4)cn3)nc2n(C2CCCC2)c1=O

34
8
0

Provide each entry's %Inh from the list below.
1. O=C(Nc1n[nH]c2nc(-c3cccs3)c(Br)cc12)C1CCCC1 [SB-743341]
2. CCn1c(-c2c(N)noc2C)nc2cnccc21 [SB-737856]

1. 12
2. 0

* * *

For each record, write down the corresponding %Inh.
system: AKT1; details: concentration: 1 μM, replicates: in singlicate; n = 1
Answers are plain numbers, in %.

> print(dat)
                                   compound  result.value
1  Cc1ccccc1Cn1ccn2c(=O)cc(N3CCOCC3)nc12 [GSK2269905]             0
2  COc1nccc(-c2c(-c3ccc(F)cc3)ncn2CCCN2CCOCC2)n1 [SB-282852]             0
3  COC(=O)c1cccc(NC(=O)NC2CCN(c3ccnc(Nc4ccc(OC)cc4)n3)C2)c1 (stereo not shown) [GSK1379746]             0

Please supply %Inh for each of the following items, keeping them in order.
1. CC(C)c1ccc(O)cc1Nc1ccnc2ccc(C(F)(F)F)cc12 [GW482059]
2. Cn1cncc1C(=O)NC1CCN(c2ccnc(Nc3ccc(F)cc3)n2)C1 (stereo not shown) [GSK1379717]
3. Cc1ccc(NC(=O)Nc2ccccc2)cc1-c1ccc(C(=O)Nc2ccncc2)cc1 [GSK1398471]

0
0
1

The following compounds each have a reported value; give each one's %Inh.
1. CCn1c(-c2ccccc2)nc2cnccc21 [SB-733416]
2. COc1ccc(CSc2nnc(-c3ccc4c(c3)CCO4)o2)cc1
3. Nc1nccc(-c2c(-c3ccc(F)cc3)ncn2C2CCN(Cc3ccccc3)CC2)n1 [SB-219980]
4. COc1cccc(C2=C(Nc3cc(Cl)c(O)c(Cl)c3)C(=O)NC2=O)c1 [SB-390767]
5. O=c1cc(N2CCOCC2)nc2n(Cc3cccc(Cl)c3Cl)c3ccccc3n12 [GSK2299009]
6. Cl.Cl.Cl.N#Cc1ccc(CCNc2nccc(-c3cccc(CN4CCNCC4)c3)n2)cc1 [GSK2137462]
7. FC(F)(F)c1ccccc1-c1cc(-c2c[nH]nc2-c2ccccn2)ccn1 [GW679396]

1. 0
2. 0
3. 15
4. 0
5. 0
6. 0
7. 0
